Test system: LOX IMVI melanoma
Assay: NCI tumour cell line growth inhibition, 48 h; in the data active means GI50 below about 0.43 µM; inactive means the rest
The categories you may choose from are label 1 for active, label 0 for inactive

Completed entries (count: 4):
[
  {
    "compound": "COc1cc(N2C(=O)[C@H](Cl)C2c2ccc(SC)cc2)cc(OC)c1OC (stereo not given in full)",
    "category_label": "label 1"
  },
  {
    "compound": "Cc1ccc(/C(=N/Nc2ccc([N+](=O)[O-])cc2)Sc2cc(Cl)c(C)cc2S(N)(=O)=O)cc1",
    "category_label": "label 0"
  },
  {
    "compound": "CCOC(=O)NC(=S)N(CC(=O)c1cc(OC)c(OC)c(OC)c1)c1ccc(Cl)cc1",
    "category_label": "label 0"
  },
  {
    "compound": "COc1cc2c(/C=C3\\C(=O)Nc4ccccc43)c[nH]c2cc1C",
    "category_label": "label 0"
  }
]

Okay, now this compound:
Task: Can you look up the reported call for C[C@@H]1C[C@@H]([C@H](O)CC2CC(=O)NC(=O)C2)C(=O)[C@@H](C)C1 for me?
Output: label 1
